Ref: patent US20060263802A1

tested on: human monoclonal antibody CRJB; format: binding
Below, each of the sequences is paired with its reported Binding of CRJB to linear peptide (PEPSCAN-ELISA signal) value.
READOUT_NAME: Binding of CRJB to linear peptide (PEPSCAN-ELISA signal)

1) ADLDPYDRSLHSRVF : 121
2) WMPENPRLGMSCDIF : 113
3) FPIYTILDKLGPWSP : 105
4) ACRAAYNWKMAGDPR : 116
5) TKESLVIISPSVADL : 112
6) FGKAYTIFNKTLMEA : 151
7) DGTWVAMQTSNETKW : 114
8) HMELLESSVIPLVHP : 129
9) LHNPYPDYRWLRTVK : 106
10) AGDPRYEESLHNPYP : 101
11) SIMTTKSVSFRRLSH : 130
12) ELVRKREECLDALES : 113
13) LYKSLKGACKLKLCG : 136
14) GMSCDIFTNSRGKRA : 120
15) SSTYCSTNHDYTIWM : 107
16) LDALESIMTTKSVSF : 116
17) MNGFTCTGVVTEAEN : 99
18) PTPDACRAAYNWKMA : 125

###

tested on: human monoclonal antibody CRJB; type: binding
Param threshold (70) applies to Binding of CRJB (10 μg/ml) to looped/cyclic peptide (PEPSCAN-ELISA signal); output YES when value >= threshold, NO when value < threshold.

1. TNLSGFSYMELKVGY : YES
2. VGYVTTTFKRKHFRP : YES
3. SLHSRVFPSGKCSGV : YES
4. TFKRKHFRPTPDACR : YES
5. WMPENPRLGMSCDIF : YES
6. YTIWMPENPRLGMSC : YES
7. DIFTNSRGKRASKGS : YES
8. WSPIDIHHLSCPNNL : YES
9. STNHDYTIWMPENPR : YES
10. PYPDYRWLRTVKTTK : YES
11. KESLVIISPSVADLD : YES
12. NFVGYVTTTFKRKHF : YES
13. HHLSCPNNLVVEDEG : NO
14. RLGMSCDIFTNSRGK : YES
15. IFTNSRGKRASKGSE : YES
16. SYMELKVGYILAIKM : YES
17. ISPSVADLDPYDRSL : NO
18. DRSLHSRVFPSGKCS : YES
19. TNSRGKRASKGSETC : YES
20. KLGPWSPIDIHHLSC : NO
21. AYNWKMAGDPRYEES : YES
22. SLHNPYPDYRWLRTV : YES
23. ADLDPYDRSLHSRVF : YES
24. FTCTGVVTEAENYTN : YES
25. TVKTTKESLVIISPS : NO
26. KCSGVAVSSTYCSTN : YES
27. RWLRTVKTTKESLVI : YES
28. NGFTCTGVVTEAENY : YES
29. LGPWSPIDIHHLSCP : YES
30. HLSCPNNLVVEDEGC : NO
31. CTGVVTEAENYTNFV : YES
32. NWKMAGDPRYEESLH : YES
33. PRYEESLHNPYPDYR : YES
34. VADLDPYDRSLHSRV : YES
35. RAAYNWKMAGDPRYE : YES
36. MPENPRLGMSCDIFT : YES
37. AIKMNGFTCTGVVTE : YES
38. FTNSRGKRASKGSET : YES
39. SRGKRASKGSETCGF : YES
40. TNHDYTIWMPENPRL : NO
41. EAENYTNFVGYVTTT : NO
42. YTNFVGYVTTTFKRK : YES
43. CTNLSGFSYMELKVG : YES
44. TNFVGYVTTTFKRKH : YES
45. VFPSGKCSGVAVSST : YES
46. PWSPIDIHHLSCPNN : YES
47. TILDKLGPWSPIDIH : NO

###

system: human monoclonal antibody CRJA; assay type: binding
Consider the cut-off 90. If the recorded Binding of CRJA (10 μg/ml) to looped/cyclic peptide (PEPSCAN-ELISA) is strictly smaller, the label is label 1; if not, the label is label 0.

1) RGKRASKGSETCGFV : label 0
2) KRASKGSETCGFVDE : label 0
3) KAYTIFNKTLMEADA : label 0
4) GNVLIPEMQSSLLQQ : label 1
5) GFVDERGLYKSLKGA : label 1
6) DGNVLIPEMQSSLLQ : label 0
7) ELLESSVIPLVHPLA : label 1
8) IMTTKSVSFRRLSHL : label 1

###

The entries below are paired with their reported Binding of CR57 (10 μg/ml) to looped/cyclic peptide (PEPSCAN-ELISA signal).
tested on: human monoclonal antibody CR57; format: binding
READOUT_NAME: Binding of CR57 (10 μg/ml) to looped/cyclic peptide (PEPSCAN-ELISA signal)

1. RLGMSCDIFTNSRGK : 105
2. SCDIFTNSRGKRASK : 1
3. VSSTYCSTNHDYTIW : 89
4. LRTVKTTKESLVIIS : 89
5. HNPYPDYRWLRTVKT : 85
6. TIWMPENPRLGMSCD : 97
7. ILAIKMNGFTCTGVV : 77
8. FSYMELKVGYILAIK : 104
9. SPIDIHHLSCPNNLV : 94
10. GVVTEAENYTNFVGY : 83
11. LDPYDRSLHSRVFPS : 88
12. TTFKRKHFRPTPDAC : 86
13. NPRLGMSCDIFTNSR : 78
14. IYTILDKLGPWSPID : 66
15. IHHLSCPNNLVVEDE : 46
16. CTGVVTEAENYTNFV : 92
17. IFTNSRGKRASKGSE : 85
18. MSCDIFTNSRGKRAS : 71
19. DRSLHSRVFPSGKCS : 91
20. VTEAENYTNFVGYVT : 84
21. YTNFVGYVTTTFKRK : 71
22. AIKMNGFTCTGVVTE : 69
23. SCPNNLVVEDEGCTN : 82
24. KVGYILAIKMNGFTC : 96
25. IDIHHLSCPNNLVVE : 55
26. VFPSGKCSGVAVSST : 79
27. MAGDPRYEESLHNPY : 65
28. DYRWLRTVKTTKESL : 46
29. KFPIYTILDKLGPWS : 72
30. KHFRPTPDACRAAYN : 70
31. TNLSGFSYMELKVGY : 39
32. FPSGKCSGVAVSSTY : 90
33. NYTNFVGYVTTTFKR : 58
34. ADLDPYDRSLHSRVF : 93
35. TPDACRAAYNWKMAG : 125
36. FTNSRGKRASKGSET : 89
37. NSRGKRASKGSETCG : 107
38. PWSPIDIHHLSCPNN : 93
39. VIISPSVADLDPYDR : 90
40. CPNNLVVEDEGCTNL : 79
41. YNWKMAGDPRYEESL : 89
42. VGYVTTTFKRKHFRP : 117
43. ESLHNPYPDYRWLRT : 123
44. PSVADLDPYDRSLHS : 57
45. IWMPENPRLGMSCDI : 329
46. TYCSTNHDYTIWMPE : 104
47. YPDYRWLRTVKTTKE : 88
48. DPYDRSLHSRVFPSG : 106
49. LHSRVFPSGKCSGVA : 110
50. NHDYTIWMPENPRLG : 170
51. TVKTTKESLVIISPS : 94
52. HDYTIWMPENPRLGM : 88
53. GFTCTGVVTEAENYT : 94
54. VKTTKESLVIISPSV : 98
55. FRPTPDACRAAYNWK : 90
56. ESLVIISPSVADLDP : 99
57. CDIFTNSRGKRASKG : 1
58. DYTIWMPENPRLGMS : 83
59. TCTGVVTEAENYTNF : 107
60. SVADLDPYDRSLHSR : 58
61. NLVVEDEGCTNLSGF : 106
62. DKLGPWSPIDIHHLS : 104
63. KMNGFTCTGVVTEAE : 77
64. KESLVIISPSVADLD : 86
65. RPTPDACRAAYNWKM : 76
66. GCTNLSGFSYMELKV : 63
67. STNHDYTIWMPENPR : 72
68. LVIISPSVADLDPYD : 98
69. GFSYMELKVGYILAI : 77
70. LVVEDEGCTNLSGFS : 76
71. ENPRLGMSCDIFTNS : 100
72. TEAENYTNFVGYVTT : 75
73. NGFTCTGVVTEAENY : 92
74. PENPRLGMSCDIFTN : 116
75. EESLHNPYPDYRWLR : 121
